ASSAY TEXT: yeast display, Sf9 membrane polyspecificity reagent, FACS + sequencing; frameworks hold sequencing errors

SEQUENCE DATA	polyreactivity (PSR sort gate)
QVQLVESGGGLVQAGGSLRLSCAASGRTFYYNAMGWYRQAPGKERELVAAISWSGGSTYYADSVKGRFTISRDNAKNTVYLQMNSLKPEDTAVYYCAADYEYSRAYGYDYWGQGTQVTVSL	low polyreactivity
QAQLVESGGGLVQAGGSLRLSSAATGIIFGRYAMGWYRQAPGKERELVAAISTSGGSTYYADSVKGRFTISRDNAKNTVYLQMNSLKAEDTAVYYCAVDLFYKYDWGQGTQVTVSS	high polyreactivity
QVQLVESGGGLVQAGGSLRLSCAASGSTLVYNDMGWYRQAPGKEREFVAAIRSNDGSTYYADSVKGRFTISRDNAKNTVYLQMNSLKPEDTAVYYCATTQAYRGENYNYWGQGTQVTVSS	low polyreactivity
QVHLVESGGGLVQAGGSLRLSSAATGSIIYWYDMGWYRQAPGKERELVAAITNDGDSTYYADSVKGRFTISRDNAKNTVYLQMNSLKPEDTAVYYCAADVLFYYEYGSWGQGTQVTVSS	low polyreactivity
QVQLVESGGGLVQAGGSLRLSCAASGRTFDLNAMGWYRQAPGKERELVAAISFSVADTYYADSVKGRFTISRDNAKNTVYLQMNSLKPEDTAVYYCAADSELGSLSGESDYWGQGTQVTVSS	low polyreactivity
QVQLVESGGGLVQAGGSLRLSCAASGSTFRPYAMGWYRQAPGKERELLAAISSGDTTDYADSVKGRFTISRDNAKNTVYLQMNSLKPEDNAVYYCATVFNDLTVYEYWSRFDYWGPGTQVTVSS	low polyreactivity
QLQLVESGGGVVQAGGSLRLSCAATGRIDWNTMGWYRQAPGKERELVASISTGGGRTYYADSVKGRFTISRDNAKNTVYLQMISLKPEDTAVFYCNAVRTVWYRYEYGYWGQGTQVTVSS	high polyreactivity
QVQLVESGGGLVQAGGSLRLSCAASGYTFYWNAMGWYRQAPGKEREFVASFSGTSTYYADSVKGRFTISRDNAKNTVYLQMNSLKREDTAVYYCNARLTLGPRKYEYWGPGTQVTVSS	low polyreactivity
QLQLVESGGGLVQAGGSLRLSCAASGGTFYSYEMGWYRQATVKEREFVAAITYGGGSTYYADSVKGRFTMSRDNAKNTDYLQMNSLKPEDTAVYYCYARRYGSRLGERYYYWGQGTQVTVSS	high polyreactivity
QVQLVESGGGLVQAGGSLRLSCAASGRIFWYYAMGWYRQAPGKDWELVATITYSGVRTYYADSVKGRFTISRDNAKNSVYLQMNSLKPEDTAVYYCAAVPGASVYGYYWKFGYWGQGTQLTVSS	high polyreactivity
QVQLVESGGGLVQAGGSLRLSCAASGLTFDVYTMGWYRQAPGKERELVAGITSGGSTDYADSVKGRFTISRDNAKNTVYLQMNSLKPEDTAVYYCNKPFPYYPDGPNGYDYWGQGTQVTVSS	low polyreactivity
QVQLVESGGGLVQAGGSLRLSCAASGSTFYLYAMGWYRQAPGKEREFVAAITYSAGSTYYADSVKGRFTISRDNAKNTVYLQMNSLKPEDTAVYYCAARHYAVRRSRYPGKLGYYWGQGTQVTVSS	high polyreactivity
QVQLVDSGGGLVQAGGSLRLSCAASGSISSFYAMGWYRQAPGKERELVAGITSGGSTNYADSVKGRFTISRDNAKNTVYLQMNSLKPEDTAVYYCAAVYKGAGTHFDVFVKEFDYWGQGTQVTVSS	low polyreactivity
QVQQQESGGGLVQAGVSLRLSWAASGTIFQLTVMGRYRQAPGKEREVVASIDYGGNTNYADSVKGRFTISRDNAKNTVYRQMNSLKPEDTAVYYCAASSDSSTTHPYWGQGTHVTVSS	low polyreactivity
QVQLVESGGGLVQAGGSLRLSCAASGFISAYYAMGWYRQAPAKERELVAGINSNGGSTYYADSVKGRFTISRDNAKNTVYLQMNSLKPEDTAVYYCNKRYRHLYYKSVGSYDYWGQGTQVTVSS	high polyreactivity
QVQLVESGGGLVQAGGSLRLSCAASGRIFYHYAMGWYRQAPGKERELVATIRRRGSSTYYADSVKGRFTISRDNAKNTVYLQMNSLKPEDTAVYYCAAGPTTNRYNYWGQGTQVTVSS	high polyreactivity
QVQLQESGGGLVQAGGSMRLSCAASGYNTIEVTRAGFSRRRAKNANLLPLLITVVLPIKRIAQNTISRDNAKNTVYLQMNSLKPEDTAVYNCAANTIGTDLYEYWGQGTQATVSS	low polyreactivity
QVQLVESGGGLVQAGGSLRVSCAASGIIFGSYPMGWYRQAPGTERELVATISFSGGTTNYADSVKGRFPISRDNATTPVYLQMNSLTPEDTAVYYCAARPAPATGKLDYWGQGTQETVSS	low polyreactivity
QVQLEESGAGLVQAGGSLRLSCAASGYIFDKYTLGWYRQAPGKERELVAVISSRGGSTYYADSVKGRFTISRDNAKNTVYVQMNSRKPEDTAVYYCAARFYRPSVPYRYDYWGQGTQVTVSS	high polyreactivity
QVQLVESGGGLVQAGGSLRLSCAASGLIFRRYAMGWYRQAPGKERELVAAISRTGGTTYYADSVKGRFTISRDNAKNTVYLQMNSLKPEDTAVYYCAAAGQGPDYDYWGQGTQVTVSS	high polyreactivity
QVQLVESGGGLVQAGGSLRLSCAASGSIFDIYAMGWYRQAPGKERELVAAISLSAGSTYYADSVKGRFTISRDNAKNTVYLQMNSLKPEDTAVYYCAKDFFEHSPVSHTYSSSKYDYWGQGTQVTVSS	low polyreactivity

----------
ASSAY TEXT: yeast display, Sf9 membrane polyspecificity reagent, FACS + sequencing; frameworks hold sequencing errors
READOUT: polyreactivity (PSR sort gate)

SEQUENCE DATA	OBSERVED
QVQLVESGGGLVQAGGSLRVSCAASGFIFGDYAMGWYRQAPGKERELVAAINRGASTYYADSVKGRFTISRDNAKNTVYLQMNSLKPEDTAVYYCAAAGYSRGGRGGYWGQGTHVTVSS	high polyreactivity
QVQLVESRGGLVQAGGSLRLSCAASGRIFLRNAMVWYRQAPGKERELVASIDRSGGSTYYADSVKGRFTISRDNAKNTVYLQMNSLKPEDTAVYYCAAAYWYLYYYWGQGTQVTVAS	low polyreactivity
QVQLVESGGGLVQAGGSLRLSCAASGLTIRYYAMGWYRQAPGKERELVAAITRGGSTYYADSVKGRFTISRDNAKNTVYLQMNSLKPDDTAVYYCAAYDVRYNTYDYDYWGQGTQVTVSS	high polyreactivity
QVQLVESGGGLVQAGGSLRLSCAASGFIYRDYVMGWYRQAPEKERELVAAISYRGGSTNYADSVKGRFTISRDNAMNTVFLQMNSLKPEDTSVYYCAADQVHKREYEYWGQGTQVTVSS	low polyreactivity
QVQLVESGGGLVQAGGSLRLSCAASGRIFYYNTMGWYRQAPGKERELVARITYSGGRTYYADSVKGRFTISRDNAKNTVYLQMNSLKPEDTAVYYCNTAYRYFERQMYYWGQGTQVTVSS	high polyreactivity
QVQLVESGGGLVQAGGSLRLSCAASGSIFRNNAMGWYRQAPGKERELVASITRRGGSTYYADSVKGRFTISRDNAKNTVYLQMNSLKPEDTAVYYCAATTQHRYKLNYWGQGTHVTVSS	high polyreactivity
QVKLVESGGGLVQAGGSLRLSFAASGFTCNANAMGWYRQAPGQERELVAAISLSGGRTYYADSVKGRFTISRDNAKNTVYLQMNSLKAEDTAVYYCAASPDGSFRRFSRVVSGDYWGQGTQVTVSS	high polyreactivity
QDQLVESGGGLVQAGGSLRLSCASSGITIATNAMGWSRQAPGKERELVAAISWSGGSTYYADSVKGRFTISRDNAKNTVFLQMNSLKPEDTAVYYCATGYSVWYDYWGQGTQVTVSS	low polyreactivity
QVQLVESGGGLVQAGGSLRLSCAASGRIFGVNAMGWYRQAPGNERELVAHIRSSGASTYYADSVKGRFTISRDNAKNTVYLQMNSLKPEDTAVYYCARDYFVDGPGYDYWGQGTQVTVSS	low polyreactivity
QVQLVESGGGLVQAGGSLRLSCAASGFTFGWYAMGWYRQAPGKERELVAAIRSDGSTYYADSVKGRFTISRDNAKNTVYLQMNSLKPEDTAVDYCAAVYYQRGWEFDYWGQGTQVTVSS	low polyreactivity
QVQLVESGGGLVQAGGSLRLSCAASGYIFVHYVMGWYRQAPGKERELVAAISSSGDRTYYADSVKGRFTISRDNAKNTVYLQMNSMKPEDTAVYYCAARYSDTSTNRYYYWGQGTQVTVSS	high polyreactivity

----------
ASSAY TEXT: yeast display, Sf9 membrane polyspecificity reagent, FACS + sequencing; frameworks hold sequencing errors

SEQUENCE DATA	polyreactivity (PSR sort gate)
QVQLVESGGGLVQAGGSLRLSCAASGRTFWVYAMGWYRQAPGKERELVAAISLSGVSTYYADSVKGRFTISRDNAKNTVYLQMNSLKPDDTAVYYCAAPLIYTPLKYHYWGQGTQVTVSS	low polyreactivity
QVQLVESGGGLVQAGGSLRLSCAASGRTFASNALGWYRQAPGKERELVADISSSGGTTYYADSVKGRFTISRDNAKNTVYLQMNSLKPEDTAVYYCAAVSSQDDPVKAWDYDYWGQGTQVTVSS	low polyreactivity
QVHLVETGGALVQAGGSLSISCAASGSIYHGYTMGWYRQAPGKERELVAAINSGDGSTYADSVKGRFTISRDNAKNTVYLQMNSLKQEDTAVYYCAALYAVYWPWYVREYDYWGHGTQVTVSS	low polyreactivity
QVQLVESGGGLVQAGGSLRLSCAASGSIFRYNAMGWYRQAPGKETELVAAISASGGRTHYADSVKGRFTISRDNAKNTVYLQMNSLKPEDTAVYYCAAATYRGTSLYGYWGQGTQVTVSS	high polyreactivity
QVQLVESGGGLVQAGGSLRLSCAASGRILNTYTMGWYRQAPGKERELVAAITSRGGSTYYADSVKGRFTISRDNAKNTVYLQMNSLKPEDTAVYYCAAGYPYDYWGQGTQVTVSS	high polyreactivity
